# Lookup of reported viability, T/C keyed by entry
System: LG0703-F498-PDC complex spheroid growth
METHOD: Anticancer human tumor LG0703-F498-PDC patient-derived lung adenocarcinoma cell line growth inhibition [AhR]
REPORTED CONDITIONS: second compound 0.316 µM; first compound 0.0949 µM; stronger effect = lower value

1. CC(C)CC(NC(=O)C(Cc1ccccc1)NC(=O)c1cnccn1)B(O)O (stereo not drawn) + Cc1cncc(-c2nc(NCCc3c[nH]c4ccccc34)c3ncn(C(C)C)c3n2)c1	0.13%
2. CC(C)CC(NC(=O)C(Cc1ccccc1)NC(=O)c1cnccn1)B(O)O (stereo not drawn) + Cc1ccccc1N=Nc1ccc(NC(=O)c2ccnn2C)c(C)c1	0.11%

Next compound, viability, T/C to be filled in.
# input compound: CC(C)CC(NC(=O)C(Cc1ccccc1)NC(=O)c1cnccn1)B(O)O (stereo not drawn) + CC(CO)NC(=O)c1cc(-c2ccc(Cl)cc2)nn(-c2cnn(C)c2)c1=O ; wanted: its viability, T/C
0.17%

###

Test system: LG0703-F498-PDC complex spheroid growth
METHOD: Anticancer human tumor LG0703-F498-PDC cell line growth inhibition [AhR];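 further: luminescence taken as a proxy for viable cell amount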;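 on viability, T/C: percent of DMSO vehicle control where 100% means growth equal to vehicle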
REPORTED CONDITIONS: second compound 0.1 µM; first compound 10 µM; stronger effect = lower value
viability, T/C for assorted compounds
Numeric answer only, unit % assumed.

1. Nc1ccccc1NC(=O)c1ccc(CNC(=O)OCc2cccnc2)cc1 + CC(CO)NC(=O)c1cc(-c2ccc(Cl)cc2)nn(-c2cnn(C)c2)c1=O	0.45
2. O=C(C=Cc1cccc(S(=O)(=O)Nc2ccccc2)c1)NO + Cc1cncc(-c2nc(NCCc3c[nH]c4ccccc34)c3ncn(C(C)C)c3n2)c1	1.27
3. O=C(C=Cc1cccc(S(=O)(=O)Nc2ccccc2)c1)NO + Cc1ccccc1N=Nc1ccc(NC(=O)c2ccnn2C)c(C)c1	2.33
4. CC1(C)CCC(CN2CCN(c3ccc(C(=O)NS(=O)(=O)c4ccc(NCC5CCOCC5)c([N+](=O)[O-])c4)c(Oc4cnc5[nH]ccc5c4)c3)CC2)=C(c2ccc(Cl)cc2)C1 + Cc1ccccc1N=Nc1ccc(NC(=O)c2ccnn2C)c(C)c1	19.1
5. CC(C)c1c(-c2ccccc2)nc2c(C#N)c[nH]n2c1=O + CC(CO)NC(=O)c1cc(-c2ccc(Cl)cc2)nn(-c2cnn(C)c2)c1=O	80.8

API: the following record is the query input.
Which viability, T/C is reported for this compound? COc1cc(Nc2ncc3c(n2)-c2ccc(Cl)cc2C(c2c(F)cccc2OC)=NC3)ccc1C(=O)O + CC(CO)NC(=O)c1cc(-c2ccc(Cl)cc2)nn(-c2cnn(C)c2)c1=O
44.4

###

System: LG0703-F498-PDC complex spheroid growth
METHOD: Anticancer human tumor LG0703-F498-PDC cell line growth inhibition [AhR];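 further: luminescence taken as a proxy for viable cell amount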
REPORTED CONDITIONS: curve of first compound; second compound 0.316 µM
pIC50: −log10 of the molar value.
A collection of molecules and their measured pIC50

// known answers, use as guide
1. CC[C@@]1(O)C(=O)OCc2c1cc1n(c2=O)Cc2cc3c(CN(C)C)c(O)ccc3nc2-1 + Cc1cncc(-c2nc(NCCc3c[nH]c4ccccc34)c3ncn(C(C)C)c3n2)c1	< 7.00
2. Nc1ccn(C2OC(CO)C(O)C2(F)F)c(=O)n1 (stereo unspecified) + Cc1cncc(-c2nc(NCCc3c[nH]c4ccccc34)c3ncn(C(C)C)c3n2)c1	> 7.50
3. Nc1ccn(C2OC(CO)C(O)C2(F)F)c(=O)n1 (stereo unspecified) + Cc1ccccc1N=Nc1ccc(NC(=O)c2ccnn2C)c(C)c1	> 7.50
4. Nc1ncn(C2CC(O)C(CO)O2)c(=O)n1 (stereo unspecified) + Cc1cncc(-c2nc(NCCc3c[nH]c4ccccc34)c3ncn(C(C)C)c3n2)c1	< 6.00
5. Nc1ncn(C2CC(O)C(CO)O2)c(=O)n1 (stereo unspecified) + CC(CO)NC(=O)c1cc(-c2ccc(Cl)cc2)nn(-c2cnn(C)c2)c1=O	< 6.00

Now for a further molecule.
Tell me the measured pIC50 of O=C(C=Cn1cnc(-c2cc(C(F)(F)F)cc(C(F)(F)F)c2)n1)NNc1cnccn1 + Cc1cncc(-c2nc(NCCc3c[nH]c4ccccc34)c3ncn(C(C)C)c3n2)c1 , please.
6.94
